B1: E3 ubiquitin-protein ligase NEDD4-like, residues 539 to 589; numbered along this chain, Q96PU5 (parent)
chain: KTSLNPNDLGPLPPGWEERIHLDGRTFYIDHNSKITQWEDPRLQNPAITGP

Variants of: B1
MEASUREMENT NOTES: abundance fitness (aPCA) (normalised: wild type 0, dead -1); higher = more abundant; growth selection in yeast, the domain comes from the species named
CONDITIONS: Homo sapiens
Label rule, in plain words: abundance fitness of -0.3 and up is T, under -0.3 is F.

Field: example entries. Status: answers known.
> print(dat)
   mutation.string  cat
1             P41V    F
2             P14T    T
3              S3K    T
4             R42N    F
5             L43D    T

Qu. Is reported abundance fitness greater than or equal to -0.3 here: F27Q
Ans. T

Qu. Does R25P have a reported abundance fitness of at least -0.3?
Ans. F

Qu. Hi team, for G15T , is the recorded abundance fitness at or above -0.3?
Ans. F
